Ref: ChEMBL document CHEMBL3739333

ASSAY PROTOCOL: Binding affinity to model membranes using Laurdan-based hydration assessed as changes in generalized polarization after 6 hrs
Activity calls are given as the source filed them. No cut-off for these calls is given here.
Outcome codes: Yes for active, No for inactive

{"SMILES REPRESENTATION": "CC/C(=C(\\c1ccccc1)c1ccc(OCCN(C)C(=O)CC[C@@H](C)[C@H]2CC[C@H]3[C@@H]4CC[C@@H]5C[C@H](OC(=O)C[n+]6ccc(N(C)C)cc6)CC[C@]5(C)[C@H]4CC[C@]23C)cc1)c1ccccc1.[Cl-]", "CAT": "Yes"}
{"SMILES REPRESENTATION": "CC/C(=C(\\c1ccccc1)c1ccc(OCCN(C)C(=O)CC[C@@H](C)[C@H]2CC[C@H]3[C@@H]4CC[C@@H]5C[C@H](OC(=O)CN)CC[C@]5(C)[C@H]4CC[C@]23C)cc1)c1ccccc1", "CAT": "Yes"}
{"SMILES REPRESENTATION": "CC/C(=C(\\c1ccccc1)c1ccc(OCCN(C)C)cc1)c1ccccc1", "CAT": "No"}
{"SMILES REPRESENTATION": "C[C@H](CCC(=O)O)[C@H]1CC[C@H]2[C@@H]3CC[C@@H]4C[C@H](OC(=O)C[n+]5ccc(N(C)C)cc5)CC[C@]4(C)[C@H]3CC[C@]12C", "CAT": "No"}

----------
Retention_time listing for selected compounds.
ASSAY PROTOCOL: Retention time of the compound by HPLC analysis
Assay type: physicochemical
OBSERVATION TYPE: Retention_time (min)

{"SMILES REPRESENTATION": "CC/C(=C(\\c1ccccc1)c1ccc(OCCN(C)C(=O)CC[C@@H](C)[C@H]2CC[C@H]3[C@@H]4CC[C@@H]5C[C@H](OC(=O)C[N+]6(C)CCCC6)CC[C@]5(C)[C@H]4CC[C@]23C)cc1)c1ccccc1.[Cl-]", "UNITS": "min", "RESULT": 6.79}
{"SMILES REPRESENTATION": "CC/C(=C(\\c1ccccc1)c1ccc(OCCN(C)C(=O)CC[C@@H](C)[C@H]2CC[C@H]3[C@@H]4CC[C@@H]5C[C@H](OC(=O)C[n+]6ccccc6)CC[C@]5(C)[C@H]4CC[C@]23C)cc1)c1ccccc1.[Cl-]", "UNITS": "min", "RESULT": 7.033}
{"SMILES REPRESENTATION": "CC/C(=C(\\c1ccccc1)c1ccc(OCCN(C)C(=O)CC[C@@H](C)[C@H]2CC[C@H]3[C@@H]4CC[C@@H]5C[C@H](OC(=O)C[n+]6ccc(N(C)C)cc6)CC[C@]5(C)[C@H]4CC[C@]23C)cc1)c1ccccc1.[Cl-]", "UNITS": "min", "RESULT": 6.837}
{"SMILES REPRESENTATION": "CC/C(=C(\\c1ccccc1)c1ccc(OCCN(C)C(=O)CC[C@@H](C)[C@H]2CC[C@H]3[C@@H]4CC[C@@H]5C[C@H](OC(=O)C[N+]6(C)CCCCC6)CC[C@]5(C)[C@H]4CC[C@]23C)cc1)c1ccccc1.[Cl-]", "UNITS": "min", "RESULT": 6.767}
{"SMILES REPRESENTATION": "CC/C(=C(\\c1ccccc1)c1ccc(OCCN(C)C(=O)CC[C@@H](C)[C@H]2CC[C@H]3[C@@H]4CC[C@@H]5C[C@H](OC(=O)C[N+]6(C)CCOCC6)CC[C@]5(C)[C@H]4CC[C@]23C)cc1)c1ccccc1.[Cl-]", "UNITS": "min", "RESULT": 6.741}
{"SMILES REPRESENTATION": "CC/C(=C(\\c1ccccc1)c1ccc(OCCN(C)C(=O)CC[C@@H](C)[C@H]2CC[C@H]3[C@@H]4CC[C@@H]5C[C@H](OC(=O)C[N+](C)(C)C)CC[C@]5(C)[C@H]4CC[C@]23C)cc1)c1ccccc1.[Cl-]", "UNITS": "min", "RESULT": 6.676}
{"SMILES REPRESENTATION": "CC/C(=C(\\c1ccccc1)c1ccc(OCCN(C)C(=O)CC[C@@H](C)[C@H]2CC[C@H]3[C@@H]4CC[C@@H]5C[C@H](OC(=O)C[N+]67CCN(CC6)CC7)CC[C@]5(C)[C@H]4CC[C@]23C)cc1)c1ccccc1.[Cl-]", "UNITS": "min", "RESULT": 6.735}
